FYI, the data here is from the NIST ThermoML archive (doi:10.1021/je700670k).

Conditions: 313.15 K; 1000 kPa; Liquid; Vibrating tube method
Can you tell me mass density for the items I'm about to list?
# unit: kg/m3 | format: bare number

Exercise: Consider the molecule CCC[N+]1(C)CCCCC1.O=S(=O)([N-]S(=O)(=O)C(F)(F)F)C(F)(F)F and give its measured mass density.
Solution: 1398.1

Exercise: Consider the molecule CCC[N+]1(C)CCCC1.O=S(=O)([N-]S(=O)(=O)C(F)(F)F)C(F)(F)F and give its measured mass density.
Solution: 1419.3

Exercise: Consider the molecule CCC[n+]1cccc(C)c1.O=S(=O)([N-]S(=O)(=O)C(F)(F)F)C(F)(F)F and give its measured mass density.
Solution: 1434.8

Exercise: Consider the molecule CCCC[N+]1(C)CCCC1.O=S(=O)([N-]S(=O)(=O)C(F)(F)F)C(F)(F)F and give its measured mass density.
Solution: 1390.1

Exercise: Consider the molecule CCn1cc[n+](C)c1.O=S(=O)([O-])C(F)(F)F [1-ethyl-3-methylimidazolium trifluoromethanesulfonate] and give its measured mass density.
Solution: 1361.6
